Target: human TLR8 (Homo sapiens)
Sequence (Q9NR97 27-1041): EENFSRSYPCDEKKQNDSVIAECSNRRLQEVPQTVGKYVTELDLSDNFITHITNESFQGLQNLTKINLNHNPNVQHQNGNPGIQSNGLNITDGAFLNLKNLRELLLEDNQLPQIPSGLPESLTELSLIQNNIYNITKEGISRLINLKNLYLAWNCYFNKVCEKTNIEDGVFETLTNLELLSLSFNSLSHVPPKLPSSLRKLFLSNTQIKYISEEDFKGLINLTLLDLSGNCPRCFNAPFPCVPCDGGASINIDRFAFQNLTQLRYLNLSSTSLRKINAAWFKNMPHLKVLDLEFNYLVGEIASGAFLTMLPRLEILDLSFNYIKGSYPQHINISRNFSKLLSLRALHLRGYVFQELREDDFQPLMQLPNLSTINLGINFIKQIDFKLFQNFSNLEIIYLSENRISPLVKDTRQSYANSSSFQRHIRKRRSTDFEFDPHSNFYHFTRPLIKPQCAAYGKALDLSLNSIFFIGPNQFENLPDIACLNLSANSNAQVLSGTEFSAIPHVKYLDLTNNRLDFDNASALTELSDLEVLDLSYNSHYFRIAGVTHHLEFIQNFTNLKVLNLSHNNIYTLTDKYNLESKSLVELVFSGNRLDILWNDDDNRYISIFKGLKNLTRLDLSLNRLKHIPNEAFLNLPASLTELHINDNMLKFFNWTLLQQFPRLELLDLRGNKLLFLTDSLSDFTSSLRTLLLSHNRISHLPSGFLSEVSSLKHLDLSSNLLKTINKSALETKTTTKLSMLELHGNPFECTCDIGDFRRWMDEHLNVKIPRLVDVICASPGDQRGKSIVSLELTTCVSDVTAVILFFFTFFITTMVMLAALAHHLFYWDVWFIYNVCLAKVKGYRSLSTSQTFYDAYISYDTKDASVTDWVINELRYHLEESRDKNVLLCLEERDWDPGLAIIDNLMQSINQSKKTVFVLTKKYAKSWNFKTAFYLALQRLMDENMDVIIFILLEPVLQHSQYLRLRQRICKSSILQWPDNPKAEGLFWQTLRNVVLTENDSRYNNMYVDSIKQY
Test: TLR8 inhibition reporter assay (HEK-Blue, SEAP)
Settings: HEK-Blue cells overexpressing human TLR8, ligand R848 14.25 μM, 22 hour incubation
pIC50: −log10 of the molar value.

# compound, pIC50
rows = [
    ("CC(C)N1CCN(c2ccc(-c3ccc4nc(-c5ccc(S(C)(=O)=O)cc5)n(C5CC5)c4n3)cc2)CC1", "< 4.30"),
    ("Cc1cc(C2CCN(C3CC4CCC(C3)N4CC(C)C)CC2)nc2c1nc(-c1ccc(S(C)(=O)=O)cc1)n2C (single isomer, unassigned)", "< 4.30"),
    ("Cc1cc(C2CCN(C3CCN(CC4CC4)CC3)CC2)nc2c1nc(-c1ccc(S(C)(=O)=O)cc1)n2C", "< 4.30"),
    ("Cc1cc(C2CCN(C3CCN(CC(C)(C)O)CC3)CC2)nc2c1nc(-c1ccc(S(C)(=O)=O)cc1)n2C", "< 4.60"),
]
